assay: Metabolic stability in Guinea pig liver microsomes assessed as parent compound remaining at 1 uM after 60 mins in presence of NADPH by LC/MS/MS analysis; assay type: ADME, Cavia porcellus, microsome; conditions: read-out: Stability
I'd be grateful if you could share measured remaining at 1 h, 1 µM for these entries.
Answers are plain numbers, in %.

>  <SMILES REPR>
CC1(C)Oc2cc(-c3cccc(C(F)(F)F)c3)ccc2-c2[nH]c(-c3c(F)cccc3Cl)nc21

>  <DISPLAY UNIT>
%

>  <remaining at 1 h, 1 µM>
93

$$$$
>  <SMILES REPR>
CC1(C)Oc2cc(C#Cc3ccccc3C(F)(F)F)ccc2-c2nc(-c3c(C#N)cccc3C#N)[nH]c21

>  <DISPLAY UNIT>
%

>  <remaining at 1 h, 1 µM>
100

$$$$
>  <SMILES REPR>
CC1(C)Oc2cc(-c3cccc(OC(F)(F)F)c3)ccc2-c2[nH]c(-c3c(F)cccc3Cl)nc21

>  <DISPLAY UNIT>
%

>  <remaining at 1 h, 1 µM>
80

$$$$

Now, please, on to the next compound.
Find the recorded remaining at 1 h, 1 µM belonging to `CC1(C)Oc2cc(C#Cc3cc(Cl)ccc3F)ccc2-c2[nH]c(-c3c(F)cccc3Cl)nc21` and report it.
73

###

assay: Metabolic stability in rat liver microsomes assessed as parent compound remaining at 1 uM after 60 mins in presence of NADPH by LC/MS/MS analysis; type: ADME, microsome; details: read-out: Stability
REPORTED METRIC: remaining at 1 h, 1 µM (%)
One number for each entry, in %.

Consider the following illustrative entries.
>  <SMILES REPR>
CC1(C)Oc2cc(-c3cccc(OC(F)(F)F)c3)ccc2-c2[nH]c(-c3c(F)cccc3Cl)nc21

>  <DISPLAY UNIT>
%

>  <MEAS VALUE>
83

$$$$
>  <SMILES REPR>
CC1(C)Oc2cc(-c3cccc(C(F)(F)F)c3)ccc2-c2[nH]c(-c3c(F)cccc3Cl)nc21

>  <DISPLAY UNIT>
%

>  <MEAS VALUE>
99

$$$$

Now, please, on to the next compound.
Find the recorded remaining at 1 h, 1 µM belonging to `CC1(C)Oc2cc(C#Cc3cc(Cl)ccc3F)ccc2-c2[nH]c(-c3c(F)cccc3Cl)nc21` and report it.
44

###

assay: Drug uptake in CSF of Dunkin Hartley guinea pig model of LPS-induced thermal hyperalgesia pain at 100 mg/kg, po qd measured 7 hrs post dose by LC/MS/MS analysis; format: ADME, organism-based, Cavia porcellus, Cerebrospinal fluid; conditions: read-out: Drug uptake
REPORTED METRIC: concentration at 7 h (nM)
Give bare numbers, in nM.

Find the recorded concentration at 7 h belonging to `CC1(C)Oc2cc(C#Cc3cc(Cl)ccc3F)ccc2-c2[nH]c(-c3c(F)cccc3Cl)nc21` and report it.
2.63

###

Target: Prostaglandin E synthase (Homo sapiens, UniProt O14684)
Sequence (O14684 whole entry): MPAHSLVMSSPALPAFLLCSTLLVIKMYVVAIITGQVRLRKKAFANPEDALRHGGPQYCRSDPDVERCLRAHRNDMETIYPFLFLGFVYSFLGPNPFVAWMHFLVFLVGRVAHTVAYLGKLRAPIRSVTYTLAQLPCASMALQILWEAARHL
Assay: Inhibition of recombinant human mPGES-1 expressed in CHO cells assessed as reduction in PGE2 formation using PGH2 a substrate preincubated for 10 mins followed by substrate addition measured after 1 min
Type: cell-based
REPORTED METRIC: pIC50
Numbers only, as −log10 of the molar value.

Consider the following illustrative entries.
>  <SMILES REPR>
CC1(C)Oc2cc(C#Cc3ccc(Cl)cc3C(F)(F)F)ccc2-c2nc(-c3c(F)cccc3Cl)[nH]c21

>  <MEAS VALUE>
8.11

$$$$
>  <SMILES REPR>
CC1(C)Oc2cc(-c3cccc(OC(F)(F)F)c3)ccc2-c2[nH]c(-c3c(F)cccc3Cl)nc21

>  <MEAS VALUE>
7.24

$$$$
>  <SMILES REPR>
CC1(C)Oc2cc(C#Cc3cccc(Cl)c3)ccc2-c2nc(-c3c(F)cccc3Cl)[nH]c21

>  <MEAS VALUE>
7.41

$$$$
>  <SMILES REPR>
CC1(C)Oc2cc(C#Cc3cc(F)ccc3C(F)(F)F)ccc2-c2[nH]c(-c3c(F)cccc3Cl)nc21

>  <MEAS VALUE>
7.68

$$$$
>  <SMILES REPR>
CC1(C)Oc2cc(C#Cc3cccc(Cl)c3Cl)ccc2-c2nc(-c3c(F)cccc3Cl)[nH]c21

>  <MEAS VALUE>
7.45

$$$$
>  <SMILES REPR>
CC1(C)Oc2cc(C#Cc3ccccc3C(F)(F)F)ccc2-c2[nH]c(-c3c(F)cccc3Cl)nc21

>  <MEAS VALUE>
7.81

$$$$
>  <SMILES REPR>
CC1(C)Oc2cc(C#Cc3ccccc3)ccc2-c2[nH]c(-c3c(C#N)cccc3C#N)nc21

>  <MEAS VALUE>
7.61

$$$$

Now, please, on to the next compound.
Find the recorded pIC50 belonging to `CC1(C)Oc2nc(C#Cc3ccccc3C(F)(F)F)ccc2-c2nc(-c3c(F)cccc3Cl)[nH]c21` and report it.
6.39

###

biological target: Prostaglandin E synthase (Homo sapiens); experiment: Inhibition of recombinant human mPGES-1 expressed in CHO cells assessed as reduction in PGE2 formation using PGH2 a substrate preincubated for 10 mins followed by substrate addition measured after 1 min; assay type: cell-based
I'd be grateful if you could share measured IC50 for these entries.
Give bare numbers, in nM.

Consider the following illustrative entries.
>  <SMILES REPR>
CC1(C)Oc2cc(C#Cc3ccccc3)ccc2-c2nc(-c3c(F)cccc3Cl)[nH]c21

>  <MEASURED TARGET>
Prostaglandin E synthase (Homo sapiens)

>  <IC50 (nM)>
83

$$$$
>  <SMILES REPR>
CC1(C)Oc2cc(C#Cc3cc(F)ccc3C(F)(F)F)ccc2-c2nc(-c3c(Cl)cncc3Cl)[nH]c21

>  <MEASURED TARGET>
Prostaglandin E synthase (Homo sapiens)

>  <IC50 (nM)>
31.5

$$$$
>  <SMILES REPR>
CC1(C)Oc2cc(C#Cc3ccc(C(F)(F)F)cn3)ccc2-c2nc(-c3c(F)cccc3Cl)[nH]c21

>  <MEASURED TARGET>
Prostaglandin E synthase (Homo sapiens)

>  <IC50 (nM)>
320

$$$$
>  <SMILES REPR>
CC1(C)Oc2cc(C#Cc3c(F)cccc3C(F)(F)F)ccc2-c2nc(-c3c(C#N)cccc3C#N)[nH]c21

>  <MEASURED TARGET>
Prostaglandin E synthase (Homo sapiens)

>  <IC50 (nM)>
12.7

$$$$
>  <SMILES REPR>
CC1(C)Oc2cc(C#Cc3ccc(F)c(C(F)(F)F)c3)ccc2-c2nc(-c3c(F)cccc3Cl)[nH]c21

>  <MEASURED TARGET>
Prostaglandin E synthase (Homo sapiens)

>  <IC50 (nM)>
29.6

$$$$

# batch: return IC50 for each of the 8 molecules below
1. CC1(C)Oc2cc(C#Cc3cc(C(F)(F)F)ccc3Cl)ccc2-c2nc(-c3c(C#N)cccc3C#N)[nH]c21
2. CC1(C)Oc2cc(-c3cccc(C(F)(F)F)c3)ccc2-c2[nH]c(-c3c(F)cccc3Cl)nc21
3. CC1(C)Oc2cc(C#Cc3ccccc3Cl)ccc2-c2nc(-c3c(F)cccc3Cl)[nH]c21
4. CC1(C)Oc2cc(C#Cc3ccccc3C(F)(F)F)ccc2-c2nc(-c3c(F)cncc3Cl)[nH]c21
5. Cc1cnc(C#Cc2ccc3c(c2)OC(C)(C)c2[nH]c(-c4c(F)cccc4Cl)nc2-3)s1
6. CC1(C)Oc2cc(C(=O)Nc3ccc(Cl)c(F)c3)ccc2-c2[nH]c(-c3c(F)cccc3Cl)nc21
7. CC1(C)Oc2cc(C(=O)Nc3ccc(C(F)(F)F)cc3)ccc2-c2[nH]c(-c3c(F)cccc3Cl)nc21
8. CC1(C)Oc2cc(C#Cc3cc(C(F)(F)F)ccc3F)ccc2-c2nc(-c3c(F)cccc3Cl)[nH]c21

[3.89, 92.9, 64.7, 170, 465, 187, 252, 25]

###

I'd be grateful if you could share measured inhibition at 20 min, 10 µM for these entries.
target: CYP2D6 (Homo sapiens, UniProt P10635); assay: Inhibition of CYP2D6 in human liver microsomes at 10 uM measured after 20 mins in presence of NADPH by LC/MS/MS analysis relative to control; type: ADME; settings: liver microsomes
Sequence (P10635 whole entry): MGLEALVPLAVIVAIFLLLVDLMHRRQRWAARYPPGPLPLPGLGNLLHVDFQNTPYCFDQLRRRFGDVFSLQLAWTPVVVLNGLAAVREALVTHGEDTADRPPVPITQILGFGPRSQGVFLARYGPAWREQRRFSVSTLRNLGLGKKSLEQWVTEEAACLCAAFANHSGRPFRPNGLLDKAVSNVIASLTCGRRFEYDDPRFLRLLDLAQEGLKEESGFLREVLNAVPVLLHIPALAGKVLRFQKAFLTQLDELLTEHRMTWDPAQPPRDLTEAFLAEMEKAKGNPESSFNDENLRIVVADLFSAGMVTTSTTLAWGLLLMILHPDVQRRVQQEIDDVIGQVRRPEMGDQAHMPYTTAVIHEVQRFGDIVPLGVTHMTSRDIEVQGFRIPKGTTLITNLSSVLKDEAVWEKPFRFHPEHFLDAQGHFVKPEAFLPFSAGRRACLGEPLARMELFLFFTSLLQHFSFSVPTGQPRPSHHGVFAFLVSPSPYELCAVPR
Answer with the number, then the unit.

Consider the following illustrative entries.
>  <SMILES REPR>
CC1(C)Oc2cc(C#Cc3cc(Cl)ccc3F)ccc2-c2[nH]c(-c3c(F)cccc3Cl)nc21

>  <inhibition at 20 min, 10 µM>
26.6%

$$$$
>  <SMILES REPR>
CC1(C)Oc2cc(-c3cccc(C(F)(F)F)c3)ccc2-c2[nH]c(-c3c(F)cccc3Cl)nc21

>  <inhibition at 20 min, 10 µM>
56%

$$$$

Now, please, on to the next compound.
Find the recorded inhibition at 20 min, 10 µM belonging to `CC1(C)Oc2cc(C#Cc3ccccc3C(F)(F)F)ccc2-c2nc(-c3c(C#N)cccc3C#N)[nH]c21` and report it.
29%
